Where these numbers come from: the Kinase Knowledgebase extract (Sharma et al. 2016)

# STUDY_TARGET: PIK3CB (Human)
# PROTOCOL_DESCRIPTION: Cell-Based Assay
# CONDITION_DESCRIPTION: 786-o
READOUT_KIND: IC50

                                smiles_text    study_target  observed_value
0  COc1ncc(-c2cccc3cc([C@H](C)Nc4ncnc5scnc45)n(-c4ccon4)c(=O)c23)cn1  PIK3CB (Human)  100 to 1000 nM
1  CC(C)n1c([C@H](C)Nc2ncnc3scnc23)cc2cccc(-c3ccc(=O)n(C)c3)c2c1=O  PIK3CB (Human)  100 to 1000 nM

====

# STUDY_TARGET: PIK3CA (human)
# PROTOCOL_DESCRIPTION: Enzyme Assay
Entries and their IC50 values follow.
READOUT_KIND: IC50

>>> df
                                smiles_text  observed_value
0  C[C@H](Nc1ncnc2scnc12)c1cc2cccc(-c3ccc(N)nc3)c2c(=O)n1C1CC1  100 to 1000 nM
1  C[C@H](Nc1ncnc2scnc12)c1cc2cccc(Cl)c2c(=O)n1CCN1CCCC1      > 10000 nM
2  C[C@H](Nc1ncnc2scnc12)c1cc2cccc(-c3cnc4ccccc4c3)c2c(=O)n1-c1ccccc1  100 to 1000 nM
3  Cc1nn(C)cc1-c1cccc2cc([C@H](C)Nc3ncnc4scnc34)n(-c3ccccc3)c(=O)c12  100 to 1000 nM
4  C[C@H](Nc1ncnc2scnc12)c1cc2cccc(-c3ccc(C(F)(F)F)nc3)c2c(=O)n1-c1ccccc1      > 10000 nM

====

# STUDY_TARGET: PIK3CA (human)
# PROTOCOL_DESCRIPTION: Cell-Based Assay
# CONDITION_DESCRIPTION: skov-3
READOUT_KIND: IC50

                                smiles_text  observed_value
0  CC(C)n1c([C@H](C)Nc2ncnc3scnc23)cc2cccc(-c3ccc(=O)n(C)c3)c2c1=O  100 to 1000 nM
1  C[C@H](Nc1ncnc2scnc12)c1cc2cccc(-c3cnn(C)c3)c2c(=O)n1-c1ccccc1  100 to 1000 nM
2  COc1ncc(-c2cccc3cc([C@H](C)Nc4ncnc5scnc45)n(-c4ccon4)c(=O)c23)cn1  100 to 1000 nM

====

Entries and their IC50 values follow.
# STUDY_TARGET: PIK3CA (human)
# PROTOCOL_DESCRIPTION: Enzyme Assay
READOUT_KIND: IC50

                                    compound    study_target  observed_value
 0  C[C@H](Nc1ncnc2scnc12)c1cc2cccc(-c3cccc(N(C)C)c3)c2c(=O)n1-c1ccccc1  PIK3CA (human)  100 to 1000 nM
 1  C[C@H](Nc1ncnc2scnc12)c1cc2cccc(-c3cnc4nccnc4c3)c2c(=O)n1-c1ccccc1  PIK3CA (human)      > 10000 nM
 2  C[C@H](Nc1ncnc2scc(-c3ccccc3)c12)c1cc2cccc(Cl)c2c(=O)n1-c1ccccc1  PIK3CA (human)      > 10000 nM
 3  C[C@H](Nc1nc(N)nc2scnc12)c1cc2cccc(-c3cnn(C)c3)c2c(=O)n1-c1ccccc1  PIK3CA (human)  100 to 1000 nM
 4  COc1cncc(-c2cccc3cc([C@H](C)Nc4ncnc5scnc45)n(C4CC4)c(=O)c23)c1  PIK3CA (human)  100 to 1000 nM
 5  Cc1sc2ncnc(N[C@@H](C)c3cc4cccc(Cl)c4c(=O)n3-c3ccccc3)c2c1C  PIK3CA (human)      > 10000 nM
 6  C[C@H](Nc1ncnc2scnc12)c1cc2cccc(-c3cnc(N)nc3)c2c(=O)n1-c1ccccc1  PIK3CA (human)  100 to 1000 nM
 7  Cc1ccnc2cc(C(C)Nc3ncnc4scnc34)n(-c3ccccc3)c(=O)c12 (stereo not drawn)  PIK3CA (human)      > 10000 nM
 8  C[C@H](Nc1ncnc2scnc12)c1cc2cccc(-c3ccc(=O)n(C)c3)c2c(=O)n1-c1ccccc1  PIK3CA (human)  100 to 1000 nM
 9  COc1cncc(-c2cccc3cc([C@H](C)Nc4ncnc5scnc45)n(-c4ccccc4)c(=O)c23)c1  PIK3CA (human)        < 100 nM
10  COc1ncc(-c2cccc3cc([C@H](C)Nc4ncnc5scnc45)n(-c4ccccc4)c(=O)c23)s1  PIK3CA (human)  100 to 1000 nM
11  C[C@H](Nc1ncnc2scnc12)c1cc2cccc(-c3cnc4c(c3)CCCC4)c2c(=O)n1-c1ccccc1  PIK3CA (human)      > 10000 nM
12  C[C@H](Nc1ncnc2scnc12)c1cc2cccc(Cl)c2c(=O)n1-c1ccon1  PIK3CA (human)      > 10000 nM
13  COc1cc(-c2cccc3cc([C@H](C)Nc4ncnc5scnc45)n(-c4ccccc4)c(=O)c23)ccn1  PIK3CA (human)  100 to 1000 nM
14  C[C@H](Nc1ncnc2scnc12)c1cc2cccc(-c3cnn(C)c3)c2c(=O)n1C1CC1  PIK3CA (human)  100 to 1000 nM
15  C[C@H](Nc1ncnc2scnc12)c1cc2cccc(Cl)c2c(=O)n1-c1cccc(F)c1  PIK3CA (human)  100 to 1000 nM
16  COc1cccc(-c2cccc3cc([C@H](C)Nc4ncnc5scnc45)n(-c4ccccc4)c(=O)c23)c1  PIK3CA (human)  100 to 1000 nM
17  C[C@H](Nc1ncnc2scnc12)c1cc2cccc(-c3ccoc3)c2c(=O)n1-c1ccccc1  PIK3CA (human)  100 to 1000 nM

====

# STUDY_TARGET: PIK3CD (Human)
# PROTOCOL_DESCRIPTION: Enzyme Assay
pIC50: −log10 of the molar value.
Entries and their pIC50 values follow.
READOUT_KIND: pIC50

In [3]: df
Out[3]:
                                    compound  observed_value
 0  C[C@H](Nc1ncnc2scnc12)c1cc2cccc(-c3cnc4ccccc4c3)c2c(=O)n1-c1ccccc1          > 7.00
 1  C[C@H](Nc1nc(Cl)nc2scnc12)c1cc2cccc(-c3cnn(C)c3)c2c(=O)n1-c1ccccc1          > 7.00
 2  C[C@H](Nc1ncnc2scnc12)c1cc2cccc(-c3ccc(N)nc3)c2c(=O)n1C1CC1          > 7.00
 3  C[C@H](Nc1ncnc2scnc12)c1cc2cccc(-c3cn(C)cn3)c2c(=O)n1-c1ccccc1    6.00 to 7.00
 4  C[C@H](Nc1ncnc2scnc12)c1cc2cccc(Cl)c2c(=O)n1C1CC1          > 7.00
 5  COc1ccccc1-c1cccc2cc([C@H](C)Nc3ncnc4scnc34)n(-c3ccccc3)c(=O)c12          > 7.00
 6  C[C@H](Nc1ncnc2scnc12)c1cc2scc(Cl)c2c(=O)n1-c1ccccc1          > 7.00
 7  CC(C)n1c([C@H](C)Nc2ncnc3scnc23)cc2cccc(-c3ccc(=O)n(C)c3)c2c1=O          > 7.00
 8  Cc1ccc(-c2cccc3cc([C@H](C)Nc4ncnc5scnc45)n(-c4ccccc4)c(=O)c23)cn1          > 7.00
 9  Cc1nc2c(N[C@@H](C)c3cc4cccc(Cl)c4c(=O)n3-c3ccccc3)ncnc2s1          < 5.00
10  Cc1ccnc2cc(C(C)Nc3ncnc4scnc34)n(-c3ccccc3)c(=O)c12 (stereo unspecified)          > 7.00

====

Entries and their IC50 values follow.
# STUDY_TARGET: PIK3CB (Human) (UniProt P42338)
# Sequence (P42338 whole entry, looked up): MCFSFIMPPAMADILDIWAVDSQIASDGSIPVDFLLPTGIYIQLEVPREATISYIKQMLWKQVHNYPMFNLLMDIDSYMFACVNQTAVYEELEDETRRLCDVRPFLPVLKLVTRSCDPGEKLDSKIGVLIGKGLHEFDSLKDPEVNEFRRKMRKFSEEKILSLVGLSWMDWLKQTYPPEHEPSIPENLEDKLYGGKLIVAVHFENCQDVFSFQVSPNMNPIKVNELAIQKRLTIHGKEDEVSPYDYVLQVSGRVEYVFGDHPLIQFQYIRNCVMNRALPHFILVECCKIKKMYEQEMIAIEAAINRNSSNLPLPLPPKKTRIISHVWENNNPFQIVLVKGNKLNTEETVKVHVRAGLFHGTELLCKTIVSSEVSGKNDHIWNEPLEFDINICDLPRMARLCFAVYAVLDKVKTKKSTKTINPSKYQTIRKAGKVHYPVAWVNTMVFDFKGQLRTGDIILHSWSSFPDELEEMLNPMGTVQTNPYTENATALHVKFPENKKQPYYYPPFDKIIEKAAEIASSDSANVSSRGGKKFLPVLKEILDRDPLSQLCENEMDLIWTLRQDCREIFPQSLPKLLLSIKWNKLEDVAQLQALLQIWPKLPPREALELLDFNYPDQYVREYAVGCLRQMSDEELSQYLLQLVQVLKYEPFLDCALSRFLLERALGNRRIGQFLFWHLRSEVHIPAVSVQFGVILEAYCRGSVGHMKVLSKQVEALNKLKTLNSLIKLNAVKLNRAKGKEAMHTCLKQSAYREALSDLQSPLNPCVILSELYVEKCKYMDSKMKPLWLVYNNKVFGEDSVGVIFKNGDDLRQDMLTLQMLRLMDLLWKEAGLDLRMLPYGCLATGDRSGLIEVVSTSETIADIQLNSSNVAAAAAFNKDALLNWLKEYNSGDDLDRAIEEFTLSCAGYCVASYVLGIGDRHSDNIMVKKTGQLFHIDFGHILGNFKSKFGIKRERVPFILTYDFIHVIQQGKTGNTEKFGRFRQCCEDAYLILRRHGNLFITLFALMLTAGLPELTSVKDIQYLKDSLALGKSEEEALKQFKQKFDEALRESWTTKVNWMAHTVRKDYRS
# PROTOCOL_DESCRIPTION: Enzyme Assay
READOUT_KIND: IC50

In [3]: df
Out[3]:
                                 smiles_text  observed_value
 0  C[C@H](Nc1ncnc2scnc12)c1cc2scc(-c3cnn(C)c3)c2c(=O)n1-c1ccccc1         > 10 µM
 1  Cc1nc2c(N[C@@H](C)c3cc4cccc(Cl)c4c(=O)n3-c3ccccc3)ncnc2s1         > 10 µM
 2  C[C@H](Nc1ncnc2scnc12)c1cc2cccc(Cl)c2c(=O)n1C1CC1        < 0.1 µM
 3  C[C@H](Nc1ncnc2scnc12)c1cc2cccc(-c3ccc(C(F)(F)F)nc3)c2c(=O)n1-c1ccccc1         > 10 µM
 4  C[C@H](Nc1nc(N)nc2scnc12)c1cc2cccc(-c3cnn(C)c3)c2c(=O)n1-c1ccccc1     0.1 to 1 µM
 5  C[C@H](Nc1ncnc2scnc12)c1cc2cccc(-c3ccccn3)c2c(=O)n1-c1ccccc1         > 10 µM
 6  CNC(=O)c1cccc2cc([C@H](C)Nc3ncnc4scnc34)n(-c3ccccc3)c(=O)c12         > 10 µM
 7  CC(C)n1cc(-c2cccc3cc([C@H](C)Nc4ncnc5scnc45)n(-c4ccccc4)c(=O)c23)cn1         > 10 µM
 8  Cc1ncc(-c2cccc3cc([C@H](C)Nc4ncnc5scnc45)n(-c4ccccc4)c(=O)c23)cn1         > 10 µM
 9  C[C@H](Nc1ncnc2scnc12)c1cc2cccc(Cl)c2c(=O)n1-c1ccon1     0.1 to 1 µM
10  Cc1nc2c(N[C@@H](C)c3cc4cccc(Cl)c4c(=O)n3-c3cccc(F)c3)ncnc2s1         > 10 µM
11  C[C@H](Nc1ncnc2scnc12)c1cc2cccc(-c3ccnnc3)c2c(=O)n1-c1ccccc1         > 10 µM
12  COc1cncc(-c2cccc3cc([C@H](C)Nc4ncnc5scnc45)n(-c4ccccc4)c(=O)c23)c1     0.1 to 1 µM
13  C[C@H](Nc1ncnc2scnc12)c1cc2cccc(-c3ccc(N(C)C)nc3)c2c(=O)n1-c1ccccc1         > 10 µM
14  C[C@H](Nc1ncnc2scnc12)c1cc2cccc(-c3cnn(CCN4CCOCC4)c3)c2c(=O)n1-c1ccccc1         > 10 µM
15  C[C@H](Nc1ncnc2scnc12)c1cc2cccc(Cl)c2c(=O)n1-c1ccccc1        < 0.1 µM
16  C[C@H](Nc1ncnc2scnc12)c1cc2cccc(-c3cncc(N)c3)c2c(=O)n1-c1ccccc1         > 10 µM
17  Cc1cccc2cc([C@H](C)Nc3ncnc4scnc34)n(-c3cccc(F)c3)c(=O)c12     0.1 to 1 µM
18  COc1cncc(-c2cccc3cc([C@H](C)Nc4ncnc5scnc45)n(C4CC4)c(=O)c23)c1     0.1 to 1 µM
19  COc1ncc(-c2cccc3cc([C@H](C)Nc4ccnc5scnc45)n(-c4ccccc4)c(=O)c23)cn1         > 10 µM
